Please find below IC50 measurements for Dual specificity protein kinase CLK1 (Homo sapiens, UniProt P49759), combined from several publications.
Recorded Metric: IC50

* N#Cc1c[nH]c2nc(Nc3ccc(C(=O)N4CCOCC4)c4c3OCCO4)nc(N[C@@H]3CCOC3)c12 | < 0.1 µM
* CCNc1cc(Nc2ccc(C(=O)N3OCC[C@@H]3c3cc(F)cc(F)c3)c3c2OCC3)nc2[nH]cc(C(F)(F)F)c12 | 0.301 to 1 µM
* CC(C)Oc1nn([C@@H](C)CO)c2c1/C=C/c1n[nH]c3cc(F)c(cc13)-c1cnn(C)c1O[C@@H](C)CN(C)C2 | 0.00048 µM
* O=C(c1ccc(Nc2nc(N[C@H]3CCOC3)c3c(C(F)(F)F)c[nH]c3n2)c2c1CCO2)N1CCOCC1 | < 0.1 µM
* COc1cc(P(C)(C)=O)ccc1Nc1nc(NCC(C)C)c2c(C(F)(F)F)c[nH]c2n1 | < 0.1 µM
* CC[C@H](C)Nc1nc(Nc2ccc(S(=O)(=O)N3CCC(N4CCOCC4)CC3)cc2OC)nc2[nH]cc(C#N)c12 | 0.301 to 1 µM
* CNc1nc(Nc2ccc(P3(=O)CCN(C4CCOCC4)CC3)cc2OC)nc2[nH]cc(C(F)(F)F)c12 | < 0.1 µM
* O=C(c1ccc(Nc2nc(N[C@@H]3CCOC3)c3cc[nH]c3n2)c2c1OCCO2)N1CCOCC1 | 0.301 to 1 µM
* CCNc1cc(Nc2ccc(C(=O)N3CCC(N4CCOCC4)CC3)c3c2OCO3)nc2[nH]cc(C#N)c12 | < 0.1 µM
* Cc1nn(CCO)c2c1/C=C/c1n[nH]c3ccc(cc13)-c1cnn(C)c1O[C@@H](C)CN(C)C2 | 0.00021 µM
* CCNc1cc(Nc2ccc(S(=O)(=O)N3CCC(N4CCOCC4)CC3)cc2OC)nc2[nH]cc(Cl)c12 | 0.301 to 1 µM
* COc1cc(S(=O)(=O)N2CCOCC2)ccc1Nc1nc(N[C@H]2CCOC2)c2c(C(F)(F)F)c[nH]c2n1 | 0.301 to 1 µM
* CC(C)Oc1nn(CCO)c2c1/C=C/c1n[nH]c3ccc(cc13)-c1cnn(C)c1OCC(CF)N(C)C2 (centres unmarked) | 0.00087 µM
* CC(C)Nc1nc(Nc2ccc(C(=O)N3CCC(N4CCOCC4)CC3)c3c2OCC3)nc2[nH]cc(C#N)c12 | < 0.1 µM
* COc1cc(S(=O)(=O)N2CCC(N3CCOCC3)CC2)ccc1Nc1nc(C2CC2)c2c(C#N)c[nH]c2n1 | 0.101 to 0.3 µM
* Cn1ncc2c1OCCN1CC[C@H](C1)Oc1ccccc1/C=C/c1n[nH]c3ccc-2cc13 | 0.00038 µM
* CCNc1nc(Nc2ccc(S(=O)(=O)N3CCOCC3)cc2OC)nc2[nH]cc(C#N)c12 | 0.301 to 1 µM
* N#Cc1c[nH]c2nc(Nc3ccc(C(=O)N4CCC(N5CCOCC5)CC4)c4c3OCCO4)nc(NC3CCC3)c12 | < 0.1 µM
* CCNc1cc(Nc2ccc(C(=O)N3CCC(N4CCN(C)CC4)CC3)c3c2OCC3)nc2[nH]cc(C(F)(F)F)c12 | < 0.1 µM
* CCOc1nn(C)c2c1/C=C/c1n[nH]c3ccc(cc13)-c1cnn(C)c1O[C@@H]1CCN(C2)C1 | 0.00066 µM
* O=C(c1ccc(Nc2nc(NC3CCCCC3)c3c(C(F)(F)F)c[nH]c3n2)c2c1OCCO2)N1CCC(N2CCOCC2)CC1 | 0.301 to 1 µM
* Cc1nn(CCO)c2c1/C=C/c1n[nH]c3cc(F)c(cc13)-c1cnn(C)c1O[C@@H](C)CN(C)C2 | 0.00011 µM
* COC[C@@H](C)Nc1cc(Nc2ccc(C(=O)N3CCOCC3)c3c2OCCO3)nc2[nH]cc(C(F)(F)F)c12 | < 0.1 µM
* CCN1Cc2c(c(OC(C)C)nn2C[C@H](C)O)/C=C/c2n[nH]c3ccc(cc23)-c2cnn(C)c2O[C@@H](C)C1 | 0.00052 µM
* CCCNc1nc(Nc2ccc(C(=O)N3CCOCC3)c3c2OCC3)nc2[nH]cc(C(F)(F)F)c12 | < 0.1 µM
* CCNc1cc(Nc2ccc(S(C)(=O)=O)cc2OC)nc2[nH]cc(C(F)(F)F)c12 | 0.301 to 1 µM
* COc1cc(P2(=O)CCN(C3CC3)CC2)ccc1Nc1cc(C2CC2)c2c(C(F)(F)F)c[nH]c2n1 | 0.301 to 1 µM
* O=C(c1ccc(Nc2nc(N[C@H]3CCOC3)c3c(C(F)(F)F)c[nH]c3n2)c2c1OCCO2)N1CCN(C2COC2)CC1 | < 0.1 µM
* COc1cc(S(=O)(=O)N2CCOCC2)ccc1Nc1nc(NCC2CCCC2)c2c(C#N)c[nH]c2n1 | 0.301 to 1 µM
